target: Calcium-dependent protein kinase 4 (Plasmodium falciparum (isolate 3D7)); assay: PfCDPK4 kinase inhibitors, biochemical, TCAMS library (AID 1159588); conditions: recombinant PfCDPK4, Kinase-Glo ATP depletion luminescence
Results with a measured potency or affinity are listed apart. Activity calls are given as the source filed them. No cut-off is given here; in the data, nearly all actives have IC50 up to about 0.91 µM.
Attribute measured: outcome

Here is how some compounds turned out for outcome.
{"Test smiles": "c1ccc(Nc2nc(-c3ccccn3)cs2)nc1", "outcome": "inactive"}
{"Test smiles": "Clc1ccc2c(NN=Cc3ccccc3)ccnc2c1", "outcome": "inactive"}
{"Test smiles": "N#Cc1c(N2CCN(c3ccc(F)cc3)CC2)nc(N)c2c(N)nc3c(c12)CC(=O)N3C1CC1", "outcome": "inactive"}
{"Test smiles": "c1ccc(-c2cc(NCCCCNc3cc(-c4ccccc4)nc4ccccc34)c3ccccc3n2)cc1", "outcome": "inactive"}
{"Test smiles": "CCN(CCO)Cc1ccc(-c2ccc(NS(=O)(=O)c3cccc4cccnc34)cc2)cc1", "outcome": "inactive"}

For the compound COc1ccc(NC(=O)Nc2cc(C)nc3cccnc23)cc1Cn1ccnc1 , what outcome is on record?
inactive

For the compound O=C(Nc1ccc(C(=O)Nc2cccc(C3=NCCN3)c2)cc1)Nc1ccc(C2=NCCN2)cc1 , what outcome is on record?
inactive

For the compound CCOC(=O)Cn1ccc2c(NCc3ccccc3)nc(C)nc21 , what outcome is on record?
inactive

For the compound O=C(Nc1ccnc(N2CCCN(Cc3cccc(O)c3)CC2)c1)c1ccc(F)cc1 , what outcome is on record?
inactive

For the compound COc1ccc(NC(=O)c2ccc(Br)c(C)c2)cc1N1CCN(Cc2ccccc2)CC1 , what outcome is on record?
inactive

###

test: antimalarial activity against Dd2 strain (AID 2302);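 note: 0% = DMSO untreated growth and 100% = chloroquine plus artemisinin killed control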; settings: P. falciparum Dd2 in RBCs, LDH growth readout, 72 h; at 2 µM; hits give high values
Could you please report measured growth inhibition for the items listed next?
API: value field is a number in %; no unit string.

For the molecule Cc1cc(=O)c2cc(Oc3cccc(OC(F)(F)F)c3)ccc2[nH]1 , what growth inhibition is on record?
80

For the molecule Clc1ccc(OCCC2CCN(CCCCCCN3CCCCC3)CC2)cc1Cl , what growth inhibition is on record?
36

For the molecule CCOC(=O)CNC(=O)c1cc(=O)c2ccccc2o1 , what growth inhibition is on record?
-4

For the molecule COc1cc(CN2CCC(C(=O)Nc3ccc(-c4cccc(C)c4)cc3)CC2)ccc1O , what growth inhibition is on record?
85

For the molecule Cc1cccc2[nH]c(-c3cccc(-c4cccc(NC(=O)C(C)CN(C)C)c4)c3)nc12 (stereo not given) , what growth inhibition is on record?
97

###

test: human hepatoma cell viability loss – ATP luminescence, cytotoxicity control for P. falciparum antimalarial project, primary screen (AID 2303); settings: HepG2 viability, 24-48 h, at 10 µM, hits give high values;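 note: 0% = DMSO wells and 100% = digitonin-killed cells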
# if measured inhibition < 30%: t  # else: f

Decide: inhibition of COc1ccc2nccc([C@@H](O)CN3CCC(NCc4ccc5scnc5c4)CC3)c2c1 strictly below 30%?
t

Decide: inhibition of COc1cc(NC(=O)/C=C/c2ccc(-c3ccccc3)cc2)ccc1OCCN(C(C)C)C(C)C strictly below 30%?
f

Decide: inhibition of CC(CN1CCN(C)CC1)C(=O)Nc1cccc(-c2ccc(-c3nc4ccc(C(F)(F)F)cc4[nH]3)cc2)c1 (centres undefined) strictly below 30%?
t

Decide: inhibition of CN(N=Cc1ccccc1)C(N)=NCCCC#Cc1cccc(CN2CCCC2)c1 strictly below 30%?
t

Decide: inhibition of COc1ccc(Nc2ncc3c(-c4cccc(NC(=O)c5ccccc5)c4)c[nH]c3n2)cc1OC strictly below 30%?
f

Decide: inhibition of O=C(Nc1cccc(OC2CCN(Cc3ccccc3)CC2)c1)c1ccc([N+](=O)[O-])cc1 strictly below 30%?
t

Decide: inhibition of Clc1ccc(-c2[nH]c3ccccc3c2CN2CCC(N3CCCCC3)CC2)cc1 strictly below 30%?
t

Decide: inhibition of COc1ccc(N2CCN(CCCCNC(=O)c3ccc(NC(=O)c4ccc(Cl)cc4)cc3)CC2)c(OC)c1 strictly below 30%?
t

Decide: inhibition of Cc1cc(N[C@@H](Cc2ccccc2)C(=O)Nc2ccccc2)nc(Nc2ccccc2)n1 strictly below 30%?
t

Decide: inhibition of Cc1cccc2[nH]c(-c3ccc(-c4cccc(CNCCc5ccncc5)c4)cc3)nc12 strictly below 30%?
t

Decide: inhibition of CCN(CC)CCOc1ccc(C(O)(C#CC(O)(c2ccc(C)cc2)c2ccc(OCCN(CC)CC)cc2)c2ccc(C)cc2)cc1 (centres undefined) strictly below 30%?
f

Decide: inhibition of O=c1cc(NCCCNCc2scc(I)c2I)[nH]c2ccccc12 strictly below 30%?
t

Decide: inhibition of CCNC(=O)c1cc(S(=O)(=O)N2CCN(c3ccccn3)CC2)cs1 strictly below 30%?
t

Decide: inhibition of COc1cccc(-c2cccc(-c3ccc(NC(=O)c4ccc([N+](=O)[O-])o4)cc3)n2)c1 strictly below 30%?
f

Decide: inhibition of CC(C)(C)n1nnnc1C(c1cccnc1)N(Cc1ccccc1)Cc1ccc(Cl)cc1 (centres undefined) strictly below 30%?
t

Decide: inhibition of CN(C)c1ccc(-c2csc(C(=O)NCC3CCN(CC4CCCCC4)C3)c2)cc1 (centres undefined) strictly below 30%?
f

Decide: inhibition of O=C(/C=C/c1cccc(Cl)c1)N1CCC(C(O)CN2CCC3(CC2)CN(C(=O)/C=C/c2cccc(Cl)c2)c2ccccc23)CC1 (centres undefined) strictly below 30%?
f

Decide: inhibition of COc1cc(-c2nc3ccc(N4CCN(C)CC4)cc3[nH]2)cc(OC)c1OC strictly below 30%?
t

Decide: inhibition of CCOc1cc(C(=O)Nc2cccnc2)ccc1-c1nc2cc(Cl)c(Cl)cc2[nH]1 strictly below 30%?
t

###

Could you please report measured inhibition for the items listed next?
experiment: human hepatoma cell viability loss – ATP luminescence, cytotoxicity control for P. falciparum antimalarial project, primary screen (AID 2303); details: HepG2 viability, 24-48 h, at 10 µM, hits give high values;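 note: 0% = DMSO wells and 100% = digitonin-killed cells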
API: value field is a number in %; no unit string.

For the compound COc1ccc(-c2cccc(NC(=O)c3ccc(C#N)cc3)c2)cc1CN1CCCN(C)CC1 , what inhibition is on record?
22

For the compound CC(Nc1ncc(-c2ccsc2)c(-c2nccs2)n1)c1ccc2c(c1)OCCO2 (stereo not given) , what inhibition is on record?
14

For the compound O=C(CN(c1cccc(C(F)(F)F)c1)S(=O)(=O)c1ccc(Cl)cc1)NCCC(c1ccccc1)c1ccccc1 , what inhibition is on record?
14

For the compound COc1ccc2nccc([C@@H](O)CN3CCC(NC(=O)c4ccc(Cl)c(Cl)c4)CC3)c2c1 , what inhibition is on record?
21

For the compound c1ccc(CCNCc2ccc(-c3ccc(CNCc4ccc5c(c4)OCO5)cc3)nc2)cc1 , what inhibition is on record?
24

###

assay: human hepatoma cell viability loss – ATP luminescence, cytotoxicity control for P. falciparum antimalarial project, primary screen (AID 2303); conditions: HepG2 viability, 24-48 h, at 10 µM, hits give high values;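 note: 0% = DMSO wells and 100% = digitonin-killed cells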
Attribute measured: inhibition (%)
API: value field is a number in %; no unit string.

For the molecule CC(C)(C)c1cc(C(=O)N2CCN(c3ccc(C(F)(F)F)cn3)CC2)n(Cc2ccc(F)cc2)n1 , what inhibition is on record?
4

For the molecule CCCNCc1ccc(-c2ccc(CN(CCOC)C(=O)c3ccc([N+](=O)[O-])c(C)c3)cc2)nc1 , what inhibition is on record?
2

For the molecule CCOC(=O)c1cnc2cc(N3CCCC3)c(Cl)cc2c1OCC , what inhibition is on record?
0

For the molecule CCc1cn2c3c(cc(C(=O)N[C@@H](Cc4cc(F)cc(F)c4)[C@H](O)CNC4CCCCC4)cc13)N(C)S(=O)(=O)CC2 , what inhibition is on record?
9

For the molecule Cc1ccc(CNC(=O)[C@H](Cc2ccccc2)Nc2cc(C)nc(Nc3ccccc3)n2)cc1 , what inhibition is on record?
16

For the molecule Cc1cc(OCC2CCCN(c3ncc(C(=O)NC4CC4)cc3Cl)C2)ccc1F (centres undefined) , what inhibition is on record?
3

For the molecule COc1ccc(CNC2CCCC2)cc1-c1ccc(S(=O)(=O)NCCN2CCCC2)s1 , what inhibition is on record?
17

For the molecule O=S(=O)(NC1CCN(c2ccnc3cc(Cl)ccc23)C1)c1cccc(F)c1 (centres undefined) , what inhibition is on record?
19

For the molecule c1cc(-c2ccc(CNCc3ccsc3)cc2)cc(-c2nc3ccccc3[nH]2)c1 , what inhibition is on record?
46

###

Could you please report measured growth inhibition for the items listed next?
assay: inhibition of 3D7 malaria parasite growth – strain 3D7 (AID 2306);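 note: 0% = DMSO wells and 100% = chloroquine plus artemisinin control wells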; settings: P. falciparum 3D7 erythrocytic growth, LDH absorbance, 72 h; at 2 µM; hits give high values
API: value field is a number in %; no unit string.

For the molecule Clc1ccc(-c2cc(-c3csc(Nc4ccncc4)n3)on2)cc1 , what growth inhibition is on record?
100

For the molecule CN1CCN(Cc2cccc(-c3ccc4c(Nc5ccc(Oc6cccnc6)cc5)ccnc4c3)c2)CC1 , what growth inhibition is on record?
100

For the molecule CCN(CCCN1CCCCC1)c1cc(C)nc(Nc2cc(C)ccc2C)n1 , what growth inhibition is on record?
93

For the molecule Cc1cc(NN=Cc2ccccc2Cl)c2cc(F)ccc2n1 , what growth inhibition is on record?
101

For the molecule Cc1ccc(C(=O)Nc2ccc(Nc3ccnc4cc(-c5nccs5)ccc34)cc2O)cc1 , what growth inhibition is on record?
100

For the molecule Cc1ccc(CNC(=O)[C@H](CCCN)Nc2cc(C)nc(NCC3CCCCC3)n2)cc1 , what growth inhibition is on record?
90

For the molecule N#Cc1cccc(C(=O)Nc2cccc(-c3ccc(CN4CCCC4)cc3)c2)c1 , what growth inhibition is on record?
98

For the molecule CCOc1cc(C(=O)NC2CCN(Cc3ccccc3)CC2)ccc1-c1nc2ccc(Cl)cc2[nH]1 , what growth inhibition is on record?
101

For the molecule O=C(C1CCN(c2nnnn2-c2ccccc2)CC1)N1CCc2ccccc2C1 , what growth inhibition is on record?
97

For the molecule O=C(Nc1cc(F)cc(F)c1)NC1CCN(CCCCCNC(=O)[C@@H]2C[C@H]2c2ccc(Cl)c(Cl)c2)CC1 , what growth inhibition is on record?
102
